system: MKK7; settings: concentration: 1 μM, replicates: in singlicate; n = 1;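 note: KINOMEscan kinase panel screen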
recordedEndpoint: %Inh (%)
Value expressed in %; do not type the unit.

# query: %Inh of entry COc1ccc(CSc2nnc(-c3ccc4nccn4c3)o2)cc1C(F)(F)F 0

// query: CNC(=O)c1ccc(C)c(-n2c(C)cc(OCc3ccc(F)cc3F)c(Br)c2=O)c1 0

How about this compound: COc1ccc(Nc2nccc(N3CCC(NC(=O)c4cc5ccccc5s4)C3)n2)cc1 (centres unmarked) 26

Also need CCn1c(-c2ccccc2)nc2cnccc21 , thanks. 16

Similarly, Cc1ccc(NC(=O)Nc2ccc(Cl)c(C(F)(F)F)c2)cc1-c1ccc(C(=O)Nc2ccncc2)cc1 ? 0

Data origin: paper PMC5540273
